assay: protein stability index of a GFP-peptide fusion (yeast GPS) (PSI 1-4); higher = more stable; sorted into four equal gates, so the index is relative within each strain; conditions: ubr1∆
Parameter protein stability index: see the listing below.
Write the value as a bare number.

Worked set:
{"columns": ["CHAIN_SEQUENCE", "protein stability index"],
 "data": [
  ["FVQLCEMGYLIQISKLH [RPC82]", 1.96],
  ["PFILEYDLMAPNGHIST [YMR129W/POM152]", 3.05],
  ["RELFVMAREHAPSIIFM [RPT6]", 1.71]
]}

Prompt: What value of measured protein stability index is listed for SYPILNESSTFLKLVLS [SIN4] ?
Completion: 2.22

Prompt: What value of measured protein stability index is listed for QMPLNSNGGNNMLPQRQ [SNF2] ?
Completion: 2.54

Prompt: What value of measured protein stability index is listed for IREIDVTGGKKALVLFV [RPS7B] ?
Completion: 1.23

---

test: protein stability index of a GFP-peptide fusion (yeast GPS) (PSI 1-4); higher = more stable; sorted into four equal gates, so the index is relative within each strain; settings: ubr1∆
OBSERVATION_TYPE: protein stability index

Worked set:
{"columns": ["CHAIN_SEQUENCE", "protein stability index"],
 "data": [
  ["DNNSKAEASFTFGTKHA [YLR335W/NUP2]", 3.02],
  ["AQYGIKALPIRRDDEVL [RPL26A]", 3.28],
  ["EKDLEHWLQLAKGVYRP [POP1]", 3.1],
  ["NAPTFNPKYDTSNASMN [YAR002W/NUP60]", 3.17],
  ["NQYKLVFYQVTPEDADE [RPL22B]", 2.14]
]}

Prompt: What value of measured protein stability index is listed for IEAASTTQDQCKLTLDI [RPB8] ?
Completion: 3.07

Prompt: What value of measured protein stability index is listed for IAKLSVIPIRRGYWGTN [RPS2] ?
Completion: 1.76

---

test: protein stability index of a GFP-peptide fusion (yeast GPS) (PSI 1-4); higher = more stable; sorted into four equal gates, so the index is relative within each strain; details: san1∆
OBSERVATION_TYPE: protein stability index
Write the value as a bare number.

{"columns": ["CHAIN_SEQUENCE", "protein stability index"],
 "data": [
  ["RYEEFADKVKLGRVRNH [RPC40]", 3]
]}

Prompt: What value of measured protein stability index is listed for IPDHLAELIPELYSFQQ [SNF12] ?
Completion: 2.95

Prompt: What value of measured protein stability index is listed for QPQETEEHHEEEPSRVD [RPT4] ?
Completion: 3.23

Prompt: What value of measured protein stability index is listed for VEAGMIALRNGQSSVKH [RPT5] ?
Completion: 2.79

Prompt: What value of measured protein stability index is listed for YSSILGNSFNKSSNDTI [YCG1] ?
Completion: 2.62

Prompt: What value of measured protein stability index is listed for LSALNSEISSLKGKINN [SMC1] ?
Completion: 3.08

Prompt: What value of measured protein stability index is listed for LPDPKPLPLDLNVQVWH [ITC1] ?
Completion: 3.01

Prompt: What value of measured protein stability index is listed for TNKDIICQIISSTITGD [RPL5] ?
Completion: 2.94

Prompt: What value of measured protein stability index is listed for ENIIQRLQAANSMEYTG [CDC53] ?
Completion: 2.25

Prompt: What value of measured protein stability index is listed for VKEQTEAAKKSEKKAKK [RPL34A] ?
Completion: 3.18

Prompt: What value of measured protein stability index is listed for SVLNPFLLRRVKADVEK [ISW2] ?
Completion: 1.18

Prompt: What value of measured protein stability index is listed for SHFSLDQFITSLKCTDP [ITC1] ?
Completion: 2.35

Prompt: What value of measured protein stability index is listed for QILIFAADTSIVEQDKS [YJL039C/NUP192] ?
Completion: 2.45

Prompt: What value of measured protein stability index is listed for ELLIYKKSQCKKKTTLE [YIL149C/MLP2] ?
Completion: 2.95

---

assay: protein stability index of a GFP-peptide fusion (yeast GPS) (PSI 1-4); higher = more stable; sorted into four equal gates, so the index is relative within each strain; conditions: ubr1∆
OBSERVATION_TYPE: protein stability index
Write the value as a bare number.

Worked set:
{"columns": ["CHAIN_SEQUENCE", "protein stability index"],
 "data": [
  ["FKLFNKYRPETAAEKKE [RPL8A]", 2.74],
  ["KIESSVESQFSAGRLYA [RPS8A]", 2.77],
  ["KPFLKGLVNHRVGVKLK [SMX3]", 1.78]
]}

Prompt: What value of measured protein stability index is listed for LYQIWIVMVWLKENTYV [YDL116W/NUP84] ?
Completion: 2.14

Prompt: What value of measured protein stability index is listed for DPNEVKYLYLRAVGGEV [RPL12A] ?
Completion: 1.53

Prompt: What value of measured protein stability index is listed for RSATGAKRAQFRKKRKF [RPS8A] ?
Completion: 2.68

Prompt: What value of measured protein stability index is listed for MSGFSLSEYLTKFQTTD [YCS4] ?
Completion: 2.9

Prompt: What value of measured protein stability index is listed for KKIFGTGKRLAKKVARR [RPS24A] ?
Completion: 3.42

---

assay: protein stability index of a GFP-peptide fusion (yeast GPS) (PSI 1-4); higher = more stable; sorted into four equal gates, so the index is relative within each strain; conditions: san1∆
OBSERVATION_TYPE: protein stability index
Write the value as a bare number.

Worked set:
{"columns": ["CHAIN_SEQUENCE", "protein stability index"],
 "data": [
  ["MQQAQFQAQQAQQAQQA [SNF2]", 2.62],
  ["SEISIIDATLKEELLRD [RRP45]", 2.3],
  ["PQINILQPIKGESARRF [RPC40]", 2.43],
  ["VFSALKNLISRINTLPQ [ECM29]", 1.76],
  ["RGTDIDRINYTETALMN [SRB5]", 2.69],
  ["TINLDRFMKGRRSKQLI [RPC82]", 1.79],
  ["SATFLRIVGSELIQKYL [RPT2]", 1.18]
]}

Prompt: What value of measured protein stability index is listed for NLAPKLRNVFLGKCSRI [GRR1] ?
Completion: 2.58

---

experiment: protein stability index of a GFP-peptide fusion (yeast GPS) (PSI 1-4); higher = more stable; sorted into four equal gates, so the index is relative within each strain; settings: san1∆
Would you please tag the item fulfilled when its protein stability index is 2 or above, and not fulfilled when it is below?

Worked cases, answers included:
{"columns": ["CHAIN_SEQUENCE", "CLASS"],
 "data": [
  ["MLVKAVANSTKAAFIRV [RPT3]", "not fulfilled"],
  ["QEQLKQMDQQLQYTALT [ARP7]", "fulfilled"],
  ["IALGEDIGKEMSLRHFG [RPN1]", "fulfilled"],
  ["IDRGLFRSLFFRSYMDQ [RPB2]", "not fulfilled"],
  ["IVKGNIIDEIKCIPKKG [POP4]", "fulfilled"],
  ["MDALTLMKCCHEAYSII [RRP45]", "not fulfilled"],
  ["KQQPTMQANKLDSQETP [SWI3]", "fulfilled"],
  ["INAEEIVDFTLPPPPPP [PRP8]", "fulfilled"]
]}

Prompt: Could you tell me if the measured protein stability index of SLVFNRKLAVERAGHLL [PRE5] reaches 2 or more?
Completion: not fulfilled

Prompt: Could you tell me if the measured protein stability index of NNTLSRYADAGNIDTKN [RRP43] reaches 2 or more?
Completion: fulfilled

Prompt: Could you tell me if the measured protein stability index of DTKKVKESPANDQASNE [YIL149C/MLP2] reaches 2 or more?
Completion: fulfilled

Prompt: Could you tell me if the measured protein stability index of DIVSIDIEEPQLDLLDD [MTW1] reaches 2 or more?
Completion: fulfilled

Prompt: Could you tell me if the measured protein stability index of QYIRTLVSEARTLWPEF [SSN8] reaches 2 or more?
Completion: fulfilled

Prompt: Could you tell me if the measured protein stability index of KPTDATGNTTSKSAFSF [YOR098C/NUP1] reaches 2 or more?
Completion: fulfilled

Prompt: Could you tell me if the measured protein stability index of IVGVLQDDADPMVSVMK [RPT2] reaches 2 or more?
Completion: fulfilled

---

assay: protein stability index of a GFP-peptide fusion (yeast GPS) (PSI 1-4); higher = more stable; sorted into four equal gates, so the index is relative within each strain; details: ubr1∆
Would you please tag the item YES when its protein stability index is 3 or above, and NO when it is below?

{"columns": ["CHAIN_SEQUENCE", "CLASS"],
 "data": [
  ["LRRSGQIANDPSKKRRR [SMD1]", "YES"],
  ["LKSFTESTAGSASTSAT [ECM29]", "YES"]
]}

Prompt: Could you tell me if the measured protein stability index of ELDQEYRSCETQDESEI [SMC4] reaches 3 or more?
Completion: YES

Prompt: Could you tell me if the measured protein stability index of KKRRGSRIYKTIKVAGT [SNU114] reaches 3 or more?
Completion: NO

Prompt: Could you tell me if the measured protein stability index of KNDSLEKTINDLQRTQT [YIL149C/MLP2] reaches 3 or more?
Completion: NO

Prompt: Could you tell me if the measured protein stability index of PMDAYLKLNHIIANINS [SNU114] reaches 3 or more?
Completion: NO

Prompt: Could you tell me if the measured protein stability index of ILGMLSLADNEIALKGL [YCS4] reaches 3 or more?
Completion: NO

Prompt: Could you tell me if the measured protein stability index of DNDFIINDFKKIGRENE [POP5] reaches 3 or more?
Completion: YES

Prompt: Could you tell me if the measured protein stability index of VWFSHPRRYGKGSRQCR [RPS29A] reaches 3 or more?
Completion: YES

Prompt: Could you tell me if the measured protein stability index of KNESATINEMMKHLGRS [FAS2] reaches 3 or more?
Completion: NO

Prompt: Could you tell me if the measured protein stability index of EWDMLNVEEEQIVPYIE [BRR2] reaches 3 or more?
Completion: YES

Prompt: Could you tell me if the measured protein stability index of ERSLAVKYINFGKTVKD [RPC31] reaches 3 or more?
Completion: NO

Prompt: Could you tell me if the measured protein stability index of VLEQLSGQTPVQSKARY [RPL11A] reaches 3 or more?
Completion: YES

Prompt: Could you tell me if the measured protein stability index of IRKDPNNLSNQLETLTG [CSE2] reaches 3 or more?
Completion: NO

This collection of values is drawn from the supplement of paper PMC9732359.
